Reported SPOT peptide array binding signal intensity values for a set of binders
biological target: SpNbp2; assay: SPOT peptide array binding signal intensity (averaged, normalized) (arbitrary units (background-subtracted, floor 0; scale differs between SH3 domains)); higher = stronger binding of the SH3 domain to the peptide
Please give the numeric answer without any surrounding text.

>>> print(df.to_string())
            binder  reported
0  VNFRRIPTGPDSPPT      14.5

Now consider the entry below.
Need SPOT peptide array binding signal intensity, item VKPRQLFPIPLNKVD
21.5

The reported numbers originate from the supplement of paper PMC4466140.
